Each record here notes measured Biodistribution: Spleen.
# Method: Biodistribution of radiotracers in normal mice
# Assay type: in vivo, mouse
# Experimental Parameters: normal male mice, 30 min
Hi! Could you send only the number? It should be in % dose/g, unit omitted.

[
  {
    "Compound": "O=C(O)CCc1ccc2c(c1)C[N+]13CC[N+]45CC(=O)[O][68Ga-3]14([O]C(=O)C3)([O]2)[O]c1ccc(CCC(=O)NCCCCCC(=O)NCCCC[C@H](NC(=O)N[C@@H](CCC(=O)O)C(=O)O)C(=O)O)cc1C5 (stereo partly drawn) [[^68Ga]1a, reference compound]",
    "Assay Result": 2.95
  }
]

The recorded Biodistribution: Spleen for O=C(O)CCc1ccc2c(n1)C[N+]13CC[N+]45CC(=O)[O][68Ga-3]14([O]C(=O)C3)([O]2)[O]c1ccc(CCC(=O)NCCCCCC(=O)NCCCC[C@H](NC(=O)N[C@@H](CCC(=O)O)C(=O)O)C(=O)O)nc1C5 (stereo partly drawn) [[^68Ga]2] is 1.33

The recorded Biodistribution: Spleen for O=C(O)CCc1ccc(O)c(CN(CCN(CC(=O)O)Cc2cc(CCC(=O)NCCCCCC(=O)NCCCC[C@H](NC(=O)N[C@@H](CCC(=O)O)C(=O)O)C(=O)O)ccc2O)CC(=O)O)n1 [[^68Ga]4a, metal not drawn] is 3.51

Data credit: patent US10688200B2
